Experiment: folding stability dG unfold (combined trypsin and chymotrypsin); higher = more stable
experimental.readout: folding stability dG unfold (kcal/mol)
One number for each entry, in kcal/mol.

Field: example entries. Status: answers known.
ordered.residues	experimental.readout	test.result
SAGGSAGGSAGAYRVEVNVELTPEAREAFLKNPELPADAEIPVVVSGRVEPVPLGPEGVLSAGGSAGGSAGG [r17_194_TrMRF]	folding stability dG unfold	-0.143
SAPFTATETVVTEEEDPATGLTRIPVEMTVDDHPVTGEGVRDPADPSRVSFSITFPDSDLTLTGEEPLPSAG [r14_178_JUSTAS]	folding stability dG unfold	0.312
SMYRIRLPSNKVFTIDVPPDGTVEITLPNGKKLTLKLESEEDILALAEILSKLFPDDPAEIEPIPLEYYRSA [r9_1206_TrMRF]	folding stability dG unfold	1.4
SAGGGLSPDTPVNYVVFVELPNGERRTFNVPGPAGRPEVAIAIAEKLREEGYEVKAIFPGEGVIVVGSAGGS [r8_497_TrMRF]	folding stability dG unfold	2.98
SAGGSVEIWILLPPNNPDLDKIREKLRDEPGIDDVNVKVVKPTPGYWVFEIEVNGDPEVADKIRDLISAGGS [r16_394_TrROS]	folding stability dG unfold	1.51
SAGGVNPTDPAQATTTETTPSLVTLPNGEKVLVTTTTTTTPDGSTTTTTTTTNAATGATTSTTTTTASAGGS [r8_252_JUSTAS]	folding stability dG unfold	2.19
SAGGSAGGSAGSEIAEAIKKALEEAGVKEVKIEKVGPEPNVFRITFENGETIEITLPEDLSAGGSAGGSAGG [r11_765_TrROS_Hall]	folding stability dG unfold	2.21
SAGGSAGKPVLVRVKLRLEFPGTGELAEAEVVVEADSIEDALDRVLKELTLPDFKAEVLDVKAIPLSAGGSA [r2_320_TrMRF]	folding stability dG unfold	2.16

For each listed entry, give its folding stability dG unfold.
1. SAGGSAMVRLPDGTLVIDVKLPEDRPDAKVTVTVLEDGSPVGSVDVNTGKVTISVSPGVSVSITVESAGGSA [r15_180_JUSTAS]
2. SAGPPGQPVKTIEIMIEFPPGQTMEEARERVEEIADEIQRKFPKIKSIDVDVQKDDDTYYVNANITIPYSAG [r5_446_TrROS]

Output line:
[1.79, 0.688]

I would be grateful if you could provide folding stability dG unfold for each of the following entries.
1. SAGMEVEILGAEVDPETGVVKVVAVGRDPVTGVLVVDEITIKGDTVEIRREVYFPNTGKKAETTATIPLSAG [r5_150_TrMRF]
2. SAGGSAGGSAGSIGFDSLEEAEKAIEEARRNNVPLTIELRLPDGSTLRIPVDLEIPEDDPSAGGSAGGSAGG [r17_462_TrMRF]

Output line:
1. 1.55
2. 1.46

----------
So I've got a bunch of sequences here, and I need their folding stability dG unfold values.
Test: folding stability dG unfold (combined trypsin and chymotrypsin); higher = more stable

# count of solved cases: 6
ordered.residues	folding stability dG unfold
SSSVSVTRTRDPRTGRLVVTVSMNYEDDPEEAVEAAKALLEAAGLDVAEVLSITVDPSTGTVTIPIAVAPSA [r9_876_JUSTAS]	3.05 kcal/mol
SAGGSAGGSMYVVKIKLKVYGENGEEYYFELELEVPEDELGEIEIELPGENLEFEAEVEVLPGSAGGSAGGS [r12_354_TrMRF]	3.38 kcal/mol
SAGGSAGGSAGGSSMSSGPGRLSITTSTVDTGSFFKPGGEVEGSKTTTVTVTTLLPPSTPSAGGSAGGSAGG [r7_614_JUSTAS]	0.908 kcal/mol
SAGGSAGGSAKPKVVLVEYDEKTGKFKIVFPDGKELEITGLTPEQIKELAKSLGADYVIIESAGGSAGGSAG [r3_78_TrMRF]	3.83 kcal/mol
SAGGSAGGSAGSMEPVKTEELESGEVRTVSLLPDGTIKEELIKIEGEGETVETKVVPLEESAGGSAGGSAGG [r11_699_JUSTAS]	1.48 kcal/mol
SAGGSAGGSGPALANIPPDAKVTVTPLPDDSYLVDIYYPNGPVEYLDVPVGDKWVKFEVEPEKSAGGSAGGS [r20_50_TrMRF]	< -1 kcal/mol

--- query ---
Input line: Indicate its recorded folding stability dG unfold; the sequence in question is SAGGRVRLEERVLPDGRRVLVVHLPDRPLEVVIPLEGLALPPDQPVLVRGEGGVRELPIGDLLPEALFSAGG [r13_97_TrMRF]
Output line: 0.88 kcal/mol

All figures here come from the supplement of paper PMC12764529.
